assay: Cytotoxicity assay, CellTiter-Glo cell viability; type: cell-based; conditions: African green monkey
*1 amine or outer side, *2 acyl side, *3 side chain or, on linkers, in order; H or OH if unused. Where a SMILES comes first, the peptide text is derived from it. Bridges are numbered along the chain shown (N, C = ends). [ ]: non-standard residue; d: D form. The star is where a group is joined. ξ: configuration not given here. Phe(3,5-F2) = N[C@@H](Cc1cc(F)cc(F)c1)C(=O)O; NH(4-OCF3-phenyl) = FC(F)(F)Oc1ccc(N*)cc1; ξPro(4S-Me) = C[C@@H]1CNC(C(=O)O)C1; aThr = C[C@H](O)[C@H](N)C(=O)O; X1 = O=C(C1COCCN1[*:1])[*:2]; CO = O=C([*:1])[*:2]; ξP = O=C(O)C1CCCN1
Reported values of IC50 at 72 h for individual entries
Respond with the bare value in µM.

### Prompt Name the recorded IC50 at 72 h for C[C@@H]1NC(=O)[C@H](C)N(C)C(=O)C2CCCN2C(=O)[C@@H](NC(=O)[C@H](Cc2cc(F)cc(F)c2)NC(=O)Nc2ccc(OC(F)(F)F)cc2)[C@H](C)OC(=O)C2CCCN2C1=O (some centres unmarked) .
### Response 10.5

### Prompt Name the recorded IC50 at 72 h for C[C@H]1CC2C(=O)O[C@@H](C)[C@H](NC(=O)[C@H](Cc3cc(F)cc(F)c3)NC(=O)Nc3ccc(OC(F)(F)F)cc3)C(=O)N3CCCC3C(=O)N3CCOCC3C(=O)N[C@@H](C)C(=O)N2C1 (stereo partly drawn) [Compound 34] ({NH(4-OCF3-phenyl)-CO}-[Phe(3,5-F2)][aThr][ξP][X1]A[ξPro(4S-Me)]; ester 2-C) .
### Response 26

### Prompt Name the recorded IC50 at 72 h for CCc1cccc(NC(=O)N[C@@H](Cc2ccccc2)C(=O)N[C@H]2COC(=O)[C@@H]3C[C@@H](C)CN3C(=O)[C@H](C)NC(=O)[C@@H]3CCCCN3C(=O)[C@@H]3CCCN3C2=O)c1 .
### Response 74.8

### Prompt Name the recorded IC50 at 72 h for CCc1ccc(NC(=O)N[C@@H](Cc2cc(F)cc(F)c2)C(=O)N[C@@H]2C(=O)N3CCCC3C(=O)N(C)[C@@H](C)C(=O)N[C@@H](C)C(=O)N3CCCC3C(=O)O[C@H]2C)cc1 (some centres unmarked) .
### Response 26.8

### Prompt Name the recorded IC50 at 72 h for C[C@H]1CC2C(=O)O[C@@H](C)[C@H](NC(=O)[C@H](Cc3cc(F)cc(F)c3)NC(=O)Nc3ccc(OC(F)(F)F)cc3)C(=O)N3CCCC3C(=O)N(C)[C@@H](C)C(=O)N[C@@H](C)C(=O)N2C1 (some centres unmarked) .
### Response 16.1

###

assay: Cytotoxicity assay, CellTiter-Glo cell viability; assay type: cell-based; conditions: African green monkey
Reported values of IC50 at 72 h for individual entries
Respond with the bare value in µM.

Examples with their reported IC50 at 72 h follow.
Molecule | Recorded Endpoint | Measured Value
CCc1ccc(NC(=O)N[C@@H](Cc2cc(F)cc(F)c2)C(=O)N[C@H]2COC(=O)[C@@H]3C[C@@H](C)CN3C(=O)[C@H](C)NC(=O)[C@@H]3CCCCN3C(=O)[C@@H]3CCCN3C2=O)cc1 | IC50 at 72 h | 70.5
C[C@@H]1CC2C(=O)O[C@@H](C)[C@H](NC(=O)[C@H](Cc3cc(F)cc(F)c3)NC(=O)Nc3ccc(OC(F)(F)F)cc3)C(=O)N3CCCC3C(=O)N3CCCCC3C(=O)N[C@@H](C)C(=O)N2C1 (stereo partly shown) | IC50 at 72 h | 43.8
C[C@@H]1NC(=O)[C@@H]2CCCCN2C(=O)[C@@H]2CCCN2C(=O)[C@@H](NC(=O)[C@H](Cc2cc(F)cc(F)c2)NC(=O)Nc2ccc3c(c2)OCO3)[C@H](C)OC(=O)[C@@H]2CCCN2C1=O | IC50 at 72 h | 46.5

Let us move to another entry and its IC50 at 72 h.
### Prompt Name the recorded IC50 at 72 h for C[C@H]1C[C@H]2C(=O)O[C@@H](C)[C@H](NC(=O)[C@H](Cc3cc(F)cc(F)c3)NC(=O)Nc3ccc4c(c3)OCO4)C(=O)N3CCC[C@H]3C(=O)N3CCCC[C@H]3C(=O)N[C@@H](C)C(=O)N2C1 .
### Response 52.8

###

molecular target: S. aureus ClpP (Sa-ClpP) (Staphylococcus aureus, UniProt Q2G036); construct: made in house; host or cells: E. coli BL21 (DE3); assay: ClpP activation, casein-BODIPY digestion assay (first described method); format: biochemical; conditions: first described ClpP activation assay (**); 10 μM saClpP, 25 μg/ml BODIPY FL casein, 37° C.; read-out: ClpP Activation EC50
Sequence (Q2G036 whole entry): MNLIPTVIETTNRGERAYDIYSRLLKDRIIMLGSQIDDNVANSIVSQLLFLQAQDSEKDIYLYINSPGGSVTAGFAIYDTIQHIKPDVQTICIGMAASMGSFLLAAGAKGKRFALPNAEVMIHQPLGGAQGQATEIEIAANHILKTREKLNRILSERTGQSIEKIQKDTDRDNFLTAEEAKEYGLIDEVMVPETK
*1 amine or outer side, *2 acyl side, *3 side chain or, on linkers, in order; H or OH if unused. Where a SMILES comes first, the peptide text is derived from it. Bridges are numbered along the chain shown (N, C = ends). [ ]: non-standard residue; d: D form. The star is where a group is joined. Phe(3,5-F2) = N[C@@H](Cc1cc(F)cc(F)c1)C(=O)O; NHPh(4-CF3) = FC(F)(F)c1ccc(N*)cc1; aThr = C[C@H](O)[C@H](N)C(=O)O; Pip = O=C(O)[C@@H]1CCCCN1; CO = O=C([*:1])[*:2]
Recorded Endpoint: EC50 (µM)
Respond with the bare value in µM.

Examples with their reported EC50 follow.
Molecule | Test Target | Recorded Endpoint | Unit Name | Measured Value
C[C@@H]1NC(=O)[C@@H]2CCCCN2C(=O)[C@@H]2CCCN2C(=O)[C@@H](NC(=O)[C@H](Cc2cc(F)cc(F)c2)NC(=O)Nc2ccc(C(F)(F)F)cc2)[C@H](C)OC(=O)[C@@H]2CCCN2C1=O [Compound 16] ({NHPh(4-CF3)-CO}-[Phe(3,5-F2)][aThr]P[Pip]AP; ester 2-C) | S. aureus ClpP (Sa-ClpP) (Staphylococcus aureus, UniProt Q2G036) | EC50 | µM | 4.4
CCc1ccc(NC(=O)N[C@@H](Cc2ccccc2)C(=O)N[C@H]2COC(=O)[C@@H]3C[C@@H](C)CN3C(=O)[C@H](C)NC(=O)[C@@H]3CCCCN3C(=O)[C@@H]3CCCN3C2=O)cc1 | S. aureus ClpP (Sa-ClpP) (Staphylococcus aureus, UniProt Q2G036) | EC50 | µM | 1.4

### Prompt Fill in the recorded EC50 for this molecule, with S. aureus ClpP (Sa-ClpP) (Staphylococcus aureus, UniProt Q2G036) as test system: C[C@H]1C[C@H]2C(=O)O[C@@H](C)[C@H](NC(=O)[C@H](Cc3cc(F)cc(F)c3)NC(=O)Nc3ccc(OC(F)(F)F)cc3)C(=O)N3CCC[C@H]3C(=O)N3CCCC[C@H]3C(=O)N[C@@H](C)C(=O)N2C1
### Response 3.6

### Prompt Fill in the recorded EC50 for this molecule, with S. aureus ClpP (Sa-ClpP) (Staphylococcus aureus, UniProt Q2G036) as test system: C[C@@H]1C[C@H]2C(=O)OC[C@H](NC(=O)[C@H](Cc3ccccc3)NC(=O)Nc3ccccc3)C(=O)N3CCC[C@H]3C(=O)N3CCCC[C@H]3C(=O)N[C@@H](C)C(=O)N2C1
### Response 3.6

###

Target: Sa-ClpP (Staphylococcus aureus, UniProt Q2G036)
Construct: made in house; host or cells: E. coli BL21 (DE3)
Test: ClpP activation, EnzCheck Protease Assay with Bodipy-FL casein (second described method)
Assay type: biochemical, S. aureus
Conditions: read-out: ClpP Activation EC50 (converted)
Experimental: Alternatively, the assay was carried out using EnzCheck Protease Assay (Molecular Probes, Catalog #E6638). The assay was performed in black 384 well, flat bottom, low volume plates (Greiner Bio-One, Monroe, N.C., catalog #784076). […] Increase in fluorescent signal following activation of Sa-ClpP by test compounds and controls was measured over time period of 30 mins using filters with excitation at 485±15 nm and emission at 520±25 nm on a PHERAstar FS Multilabel reader (BMG, Cary, N.C.). […]
Recorded Endpoint: EC50
# number then unit; no other words

Compound | EC50
Cc1ccc(NC(=O)N[C@@H](Cc2cc(F)cc(F)c2)C(=O)N[C@@H]2C(=O)N3CCC[C@H]3C(=O)N3CCCC[C@H]3C(=O)N[C@@H](C)C(=O)N3C[C@@H](C)C[C@H]3C(=O)O[C@H]2C)cc1 | 320 nM

### Prompt Name the recorded EC50 for C[C@@H]1C[C@H]2C(=O)OC[C@H](NC(=O)[C@H](Cc3ccccc3)NC(=O)Nc3ccc4c(c3)CCN4C)C(=O)N3CCC[C@H]3C(=O)N3CCCC[C@H]3C(=O)N[C@@H](C)C(=O)N2C1 .
### Response 1100 nM

### Prompt Name the recorded EC50 for Cc1ccc(NC(=O)N[C@@H](Cc2cc(F)cc(F)c2)C(=O)N[C@H]2COC(=O)[C@@H]3C[C@@H](C)CN3C(=O)[C@H](C)NC(=O)[C@@H]3CCCCN3C(=O)[C@@H]3CCCN3C2=O)cc1 .
### Response 400 nM

### Prompt Name the recorded EC50 for Cc1ccc(NC(=O)N[C@@H](Cc2cc(F)cc(F)c2)C(=O)N[C@@H]2C(=O)N3CCCC3C(=O)N3CCOCC3C(=O)N[C@@H](C)C(=O)N3C[C@H](C)CC3C(=O)O[C@H]2C)cc1 (some centres unmarked) .
### Response 400 nM

### Prompt Name the recorded EC50 for Cc1ccc(NC(=O)N[C@@H](Cc2cc(F)cc(F)c2)C(=O)N[C@H]2COC(=O)C3C[C@H](F)CN3C(=O)[C@H](C)NC(=O)C3CCCCN3C(=O)C3CCCN3C2=O)cc1 (some centres unmarked) .
### Response 900 nM
